# TARGET DESC: T1, BMPRIb receptor-Fc fusion (UniProt O00238 14-126)
# T1 construct: BMP receptor-Fc fusion used at 5 ug/mL; also called ALK-6
# T1 sequence (looked up): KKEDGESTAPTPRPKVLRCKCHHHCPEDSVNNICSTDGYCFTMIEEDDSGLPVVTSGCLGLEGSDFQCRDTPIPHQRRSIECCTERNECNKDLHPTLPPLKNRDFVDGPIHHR
# PROCEDURE TEXT: ELISA-like plate assay, captured BMP-7 from conditioned media, receptor-Fc detection
Assign BMPRIb binding (relative to wild type = 1.0) to each entry below.

For every item below, please supply its BMPRIb binding (relative to wild type = 1.0).
1. BMP-7 variant F93D (ligand, In conditioned media; numbering on mature BMP-7) STGGKQRSQNRSKTPKNQEALRMASVAENSSSDQRQACKKHELYVSFRDLGWQDWIIAPEGYAAYYCEGECAFPLNSYMNATNHAIVQTLVHDINPETVPKPCCAPTQLNAISVLYFDDSSNVILKKYRNMVVRACGCH
2. BMP-7 variant S77P (ligand, In conditioned media; numbering on mature BMP-7) STGGKQRSQNRSKTPKNQEALRMASVAENSSSDQRQACKKHELYVSFRDLGWQDWIIAPEGYAAYYCEGECAFPLNPYMNATNHAIVQTLVHFINPETVPKPCCAPTQLNAISVLYFDDSSNVILKKYRNMVVRACGCH

0.91 relative to wild type
0.79 relative to wild type

Value source: patent US20060058231A1
